system.under.test: M1 muscarinic receptor (Homo sapiens)
Construct: expressed in transfected cells; host or cells: CHO cells (M1-CHO, under zeocin and G418 selection)
protocol.notes: Functional mobilization of intracellular calcium (FLIPR, Fluo-3), M1-CHO cells
Assay type: cell-based
applied.conditions: compound nos. 1-454; 100% efficacy is the maximum response obtained with the Carbachol control; read-out: M1 Efficacy
Quick list: Emax per entry.

| compound | Emax |
| --- | --- |
| C#CCCOC(=O)N1C2CCC1CC(N1CCC3(CC1)CN(C(=O)N(C)C)c1ccc(F)cc13)C2 (stereo not drawn) | < 65% |
| COC(=O)N1CC2(CCN(C3CC4CCC(C3)N4C(=O)OC)CC2)c2cc(F)ccc21 (stereo not drawn) | 65 to 85% |
| CCOC(=O)N1CCC(N2CCC3(CC2)CN(C(=O)c2ccc(F)cc2)c2ccc(F)cc23)CC1 | 65 to 85% |
| CC(=O)N1CC2(CCN(C3CCN(C(=O)OC4CCC4)CC3)CC2)c2cc(C)ccc21 | > 85% |
| CCCC1CCC(N2CCC3(CC2)CNc2ccc(Cl)cc23)CC1 (stereo not drawn) | < 65% |

Dear colleague, please send me the reported Emax for c1ccc2c(c1)CCC21CCN(CC2CCOCC2)CC1 when you can.
< 65%

Return Emax (reported value) for this compound: O=C1CC2(CCN(C[C@@H]3C[C@H]4C=C[C@H]3C4)CC2)c2ccccc21
< 65%

Quote Emax reported for CCOC(=O)N1C2CCC1CC(N1CCC3(CC1)C(=O)N(C)c1ccccc13)C2 (stereo not drawn) please.
> 85%

Given the compound CC(C)OC(=O)N1C2CCC1CC(N1CCC3(CC1)CN(C(=O)O[C@@H]1CCOC1)c1ccc(F)cc13)C2 (stereo partly drawn) , write its reported Emax.
< 65%

Specify measured Emax for CCOC(=O)N1C2CCC1CC(N1CCC3(CCc4ccccc43)CC1)C2 (stereo not drawn) .
65 to 85%

Dear colleague, please send me the reported Emax for CCCOC(=O)N1CCC(CN2CCC3(CC2)CN(C(C)=O)c2ccc(F)cc23)CC1 when you can.
65 to 85%

Return the recorded Emax value; entry: CC(=O)N1CC2(CCN(CC3=CCCCC3)CC2)c2cc(F)ccc21
65 to 85%

###

system.under.test: M1 muscarinic receptor (Homo sapiens, UniProt P11229)
Construct: expressed in transfected cells; host or cells: CHO cells (M1-CHO, under zeocin and G418 selection)
Sequence (P11229 whole entry): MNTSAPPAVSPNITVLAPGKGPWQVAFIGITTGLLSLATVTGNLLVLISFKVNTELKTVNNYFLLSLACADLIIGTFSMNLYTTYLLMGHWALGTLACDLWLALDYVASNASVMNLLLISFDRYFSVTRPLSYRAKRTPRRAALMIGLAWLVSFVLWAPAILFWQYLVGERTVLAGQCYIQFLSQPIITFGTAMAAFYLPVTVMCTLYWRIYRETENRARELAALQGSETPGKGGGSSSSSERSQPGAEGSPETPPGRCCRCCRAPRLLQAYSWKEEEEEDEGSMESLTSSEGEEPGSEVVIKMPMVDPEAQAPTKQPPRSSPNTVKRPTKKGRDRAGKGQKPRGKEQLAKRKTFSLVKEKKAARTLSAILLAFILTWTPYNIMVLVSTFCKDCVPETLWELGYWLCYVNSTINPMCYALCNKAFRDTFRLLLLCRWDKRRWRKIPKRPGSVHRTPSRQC
protocol.notes: Functional mobilization of intracellular calcium (FLIPR, Fluo-3), M1-CHO cells
Type: cell-based
applied.conditions: compound nos. 1-454; 100% efficacy is the maximum response obtained with the Carbachol control; read-out: M1 Efficacy
Method: CHO cells expressing muscarinic receptors (M1 to M5) are grown as monolayers in tissue culture flasks at 37° C. in a humidified atmosphere containing 5% CO2 and passaged every 3-5 days. […] The potency, efficacy and selectivity of the muscarinic compounds were evaluated by screening the compound activity across the whole family (M1 to M5 cells). […]
assay.readout: Emax

Worked set:
| molecule | Emax |
| --- | --- |
| CCOC(=O)N1C2CCC1CC(N1CCC3(CC1)CN(C(=O)C1CCC1)c1ccc(F)cc13)C2 (stereo not shown) | > 85% |
| CC(=O)N1CC2(CCN(CC3CCN(C(=O)OC(C)C)CC3)CC2)c2cc(C)ccc21 | < 65% |
| CC(=O)N1CC2(CCN(C3CCN(C(=O)OCCF)C3)CC2)c2cc(F)ccc21 (stereo not shown) | < 65% |
| Clc1ccc2c(c1)C1(CCN(C3CC4CCC(C4)C3)CC1)CN2 (stereo not shown) | 65 to 85% |
| CCOC(=O)N1C2CCC1CC(N1CCC3(CC1)CNc1ccccc13)C2 (stereo not shown) | > 85% |

Determine its reported Emax: Clc1ccc2c(c1)C1(CCN(C3CCOCC3)CC1)CN2
65 to 85%

Output measured Emax for this item: CCOC(=O)N1CCC(N2CCC3(CC2)CN(C(=O)N(CC)CC)c2ccc(F)cc23)CC1
< 65%

Answer with reported Emax of CC(=O)N[C@H]1CC2(CCN(C3CCC(c4ccccc4)CC3)CC2)c2ccccc21 (stereo partly shown)
> 85%

Identify Emax associated with the molecule CCOC(=O)N1CCC(N2CCC3(CC2)CN(C(C)=O)c2ccc(C4CC4)cc23)CC1
< 65%

Read the entry CCOC(=O)N1CCC(N2CCC3(CC2)CN(CCOC)c2ccc(F)cc23)CC1 and write its reported Emax.
< 65%

Specify measured Emax for CCOC(=O)N1C2CCC1CC(N1CCC3(CC1)C(=O)Nc1ccccc13)C2 (stereo not shown) .
65 to 85%

Provide measured Emax value, entry: CCC1CCC(N2CCC3(CC2)CN(C(C)=O)c2ccc(F)cc23)CC1 (stereo not shown)
65 to 85%

Please look at this molecule and report its Emax: O=C(OC1CCC1)N1CC2(CCN(C3CC4CCC(C3)N4C(=O)O[C@H]3CCOC3)CC2)c2cc(F)ccc21 (stereo partly shown)
65 to 85%

Hello, please tell me recorded Emax for this one: CC(=O)N1CC2(CCN(C3CCCC(C(F)(F)F)C3)CC2)c2cc(F)ccc21 (stereo not shown)
< 65%

Using known records, supply Emax for O=C(OCC(F)F)N1C2CCC1CC(N1CCC3(CC1)COc1ccc(F)cc13)C2 (stereo not shown)
> 85%

Please list Emax recorded for the molecule CCOC(=O)N1C2CCC1CC(N1CCC3(CC1)CN(C(C)=O)c1c(F)cccc13)C2 (stereo not shown)
< 65%
